Field: minimal effective dose. Provide a value for each of the molecules that follow.
# System: mice
# method.description: SmartCube in vivo neuropharmacological behavioral assay
# test.conditions: Mus musculus, ip, 0.25 h; dose having 50% or more total activity in SmartCube, i.p.; read-out: MED (minimal effective dose)
Structures can show the parent of a compound that is named as a salt.

minimal effective dose for CC(CF)N1C2CCCC1c1ccccc12 (stereo not shown) [Compound 19, hydrochloride] is 10 to 30 mg/kg

minimal effective dose for CN1C2CCCC1c1ccccc12 [Compound 3, hydrochloride] is 10 to 30 mg/kg

minimal effective dose for FCC(CF)N1C2CCCC1c1ccccc12 [Compound 14, hydrochloride] is 10 to 30 mg/kg

minimal effective dose for CCCN1C2CCCC1c1ccccc12 [Compound 7, hydrochloride] is 10 to 30 mg/kg

minimal effective dose for CC(C)N1C2CCC(=O)C1c1ccccc12 (stereo not shown) [Compound 39, hydrochloride] is > 30 mg/kg

minimal effective dose for CCC(C)N1C2CCCC1c1ccccc12 (stereo not shown) is 1 to 10 mg/kg

minimal effective dose for CCC(C)N1C2CC(C)CC1c1ccccc12 (stereo not shown) [Compound 37, hydrochloride] is 1 to 10 mg/kg

minimal effective dose for c1ccc2c(c1)C1CCCC2N1 is 10 to 30 mg/kg

minimal effective dose for c1ccc2c(c1)C1CCCC2N1C1CC1 [Compound 15, hydrochloride] is 10 to 30 mg/kg

minimal effective dose for CC1CC2NC(C1)c1ccccc12 (stereo not shown) [Compound 29, hydrochloride] is 1 to 10 mg/kg

Values from patent US20230116114A1
